- run.description: Toxicity against brine shrimp
- Type: organism-based
- conditions: artemia, in vivo
value.type: LC50 (µg/mL)
# output: bare number, implied unit µg/mL

Memo: "COc1cc([C@@H]2O[C@@H](c3cc(OC)c(OC)c(OC)c3)[C@H](C)[C@H]2C)cc(OC)c1OC" , reported LC50: 21
